Recorded interaction score values for a group of binders are listed next.
# Study System: T1, 4H376-AA
# T1 chain: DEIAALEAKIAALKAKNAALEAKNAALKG
# Test Name: two-hybrid library CCmax;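 note: natural log of median RNA to DNA barcode read ratio; higher means stronger binding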
# Particulars: mean of both orientations

| Binder | interaction score |
| --- | --- |
| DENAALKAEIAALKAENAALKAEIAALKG [4H1626-AA] | -1.87 |
| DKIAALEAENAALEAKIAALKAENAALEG [4H2219-AA] | -1.64 |
| DKIAALEAKNAALKAEIAALEAKNAALKG [4H2504-AA] | -1.78 |
| DKNAALEAKNAALEAKIAALEAKIAALEG [4H3493-AA] | -1.47 |
| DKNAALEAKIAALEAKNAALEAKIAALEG [4H3381-AA] | -1.55 |
| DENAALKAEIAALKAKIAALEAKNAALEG [4H1639-AA] | -1.37 |
| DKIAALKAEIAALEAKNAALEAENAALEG [4H2611-AA] | 1.87 |
| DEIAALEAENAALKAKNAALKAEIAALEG [4H249-AA] | -1.45 |
| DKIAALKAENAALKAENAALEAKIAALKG [4H2774-AA] | -2.64 |
| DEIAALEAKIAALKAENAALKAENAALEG [4H347-AA] | -1.06 |
